All values here come from paper PMC2756588.

Target: T1, Bbc1, P47068
T1 sequence (P47068 1-78, looked up): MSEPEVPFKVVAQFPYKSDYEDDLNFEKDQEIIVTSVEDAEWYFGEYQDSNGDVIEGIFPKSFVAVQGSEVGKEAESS
Assay: SPOT array
Conditions: median of control spots 796
Exercise: for every item that follows, state its recorded SPOT intensity.
// return just the number, without any unit appended

Quick check: SPOT intensity of KRRAPPPVPKKPSSR ? 233

How about this binder: NSMRPPLLIPAATTK 0

Moving on to NAGIRPKFILALNDE 24

Further, for TPTSGPPLLPPRNTM ? 0
